The reported measurements were obtained from the RNAGym collection of RNA variant scans (doi:10.7554/elife.80360).

B1: HDV Ribozyme (parent)
chain: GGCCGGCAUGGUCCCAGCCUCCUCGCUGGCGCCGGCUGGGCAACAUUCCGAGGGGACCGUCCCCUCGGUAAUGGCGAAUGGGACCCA

# Variants of: B1
# assay: self-cleavage, relative activity (ratio to wild type); higher = more cleavage; co-transcriptional
Catalogue of variants with associated self-cleavage

seq | self-cleavage
GGCCGGCAUGGUCCCAGCCUCCCCGCUGGCGCCGGCUGGGCAACAUUCCGAGGGGACCGUCCCCUCGGUAAUGGCGAAGGGGACCCA | 0.883
GGCCGGCAUGGUCCCAGCCUCCUCGCUGGCGCCGGCUGGGCAACAUUCCGAGGGGACCGUUCUCUCGGUAAUGGCGAAUGGGACCCA | 0.958
GGCCGGCAUGGUCCCAGCCUCCUCGCUGGCGCCGGCUGGGCAACAUUCCGAGGGGACCGUCCCCUCGGUAACGGCGAAUGGGUCCCA | 0.128
